target: human TLR8 (Homo sapiens (Human)); experiment: TLR8 inhibition reporter assay (HEK-Blue SEAP); details: read-out: TLR8 IC50; HEK-Blue human TLR8 cells, R848 15.9 μM;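 note: SEAP driven by IFN-β minimal promoter carrying NF-κB and AP-1 sites, compounds dosed 0.05 nM to 50 µM for 22 h, inhibition scaled between agonist-plus-DMSO and reference-inhibitor wells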
Sequence (Q9NR97 27-1041): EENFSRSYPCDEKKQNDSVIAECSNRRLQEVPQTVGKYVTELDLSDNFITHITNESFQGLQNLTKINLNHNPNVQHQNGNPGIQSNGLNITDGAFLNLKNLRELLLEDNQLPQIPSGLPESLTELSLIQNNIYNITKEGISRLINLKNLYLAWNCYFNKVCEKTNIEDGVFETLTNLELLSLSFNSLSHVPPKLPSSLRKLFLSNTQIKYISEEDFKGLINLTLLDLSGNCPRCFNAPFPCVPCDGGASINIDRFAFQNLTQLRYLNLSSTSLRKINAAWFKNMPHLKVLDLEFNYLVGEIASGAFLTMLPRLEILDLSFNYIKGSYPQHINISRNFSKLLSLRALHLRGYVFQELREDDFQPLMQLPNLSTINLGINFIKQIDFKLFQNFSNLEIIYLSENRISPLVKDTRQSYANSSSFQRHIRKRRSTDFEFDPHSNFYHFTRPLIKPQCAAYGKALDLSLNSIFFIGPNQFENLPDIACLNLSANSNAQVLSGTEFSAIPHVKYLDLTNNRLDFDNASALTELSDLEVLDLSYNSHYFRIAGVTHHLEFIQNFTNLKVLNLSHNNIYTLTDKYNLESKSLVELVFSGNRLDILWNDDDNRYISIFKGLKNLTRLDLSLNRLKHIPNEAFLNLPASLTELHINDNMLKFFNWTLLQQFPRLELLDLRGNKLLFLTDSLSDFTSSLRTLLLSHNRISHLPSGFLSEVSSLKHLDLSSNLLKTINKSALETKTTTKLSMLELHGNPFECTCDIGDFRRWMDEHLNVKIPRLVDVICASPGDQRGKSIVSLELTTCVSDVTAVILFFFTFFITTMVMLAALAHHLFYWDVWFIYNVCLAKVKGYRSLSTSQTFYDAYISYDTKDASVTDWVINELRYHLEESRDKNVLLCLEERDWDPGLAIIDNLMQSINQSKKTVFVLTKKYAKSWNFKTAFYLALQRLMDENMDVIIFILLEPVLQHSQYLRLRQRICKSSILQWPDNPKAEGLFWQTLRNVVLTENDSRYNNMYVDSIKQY
Result Type: IC50 (nM)

Would you please look over these solved cases?
Cc1c(-c2[nH]c3ccc(N4[C@@H]5CC[C@H]4CNC5)nc3c2C(C)C)cn2ncnc2c1C ... 0.8
Cc1c(-c2[nH]c3ccc(N4CCN(C(=O)CN(C)CC(C)C)CC4)nc3c2C(C)C)cn2ncnc2c1C ... 3.2
Cc1c(-c2[nH]c3ccc(C4CCC(N5CC6(CCO6)C5)CC4)nc3c2C(C)C)cn2ncnc2c1C (stereo not shown) [Example 1055] ... 8.3
Cc1c(-c2[nH]c3ccc(N4C[C@H](C)N(C(=O)CCN(C)C)C[C@H]4C)nc3c2C(C)C)cn2ncnc2c1C ... 1.5

I: COC1CN(C2CCC(c3ccc4[nH]c(-c5cn6ncnc6c(C)c5C)c(C(C)C)c4n3)CC2)C1 (stereo not shown) [Example 1042]
II: Cc1c(-c2[nH]c3ccc(N4C[C@@H](C)N(C(=O)CCN5CCOCC5)C[C@@H]4C)nc3c2C(C)C)cn2ncnc2c1C
III: Cc1c(-c2[nH]c3ccc(N4CCN(CCC(N)=O)[C@H](C)C4)nc3c2C(C)C)cn2ncnc2c1C
Query: Rank the items in ascending order with respect to IC50. Sort and list the labels as requested.
Result: II, III, I
(II: 0.45 nM, III: 0.82 nM, I: 3.3 nM)

Cited source: patent US10544143B2
